Molecular target: Adenosine A₁ Receptor (Cavia porcellus)
Construct: from tissue; host or cells: guinea pig cerebrum membrane preparation
Sequence (P47745 whole entry): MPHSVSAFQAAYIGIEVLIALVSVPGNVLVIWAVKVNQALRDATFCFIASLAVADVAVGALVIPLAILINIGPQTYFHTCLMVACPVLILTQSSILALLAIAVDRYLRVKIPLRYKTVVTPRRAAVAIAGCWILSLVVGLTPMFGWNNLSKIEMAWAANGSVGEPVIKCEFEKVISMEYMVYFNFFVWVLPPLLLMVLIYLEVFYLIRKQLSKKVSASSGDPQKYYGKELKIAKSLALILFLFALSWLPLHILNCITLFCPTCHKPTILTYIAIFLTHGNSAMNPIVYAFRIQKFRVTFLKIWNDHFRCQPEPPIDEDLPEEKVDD
Assay: Adenosine A1 receptor binding (3H-CHA binding)
Parameters: species or system guinea pig
Details: concentration of tested compound 10⁻⁵ M; ³H-CHA 1.1 nM, guinea pig cerebrum

{"columns": ["Compound", "inhibition at 10 µM"],
 "data": [
  ["CCCCn1c(=O)c2[nH]c(C34CC5CC(CC3C5)C4)nc2n(CCCC)c1=O", "100%"],
  ["CCCn1c(=O)c2[nH]c([C@@H]3CC[C@H]4CCC[C@H]43)nc2n(CCC)c1=O (relative stereo)", "99%"],
  ["CCCn1c(=O)c2[nH]c([C@H]3CC[C@H]4CCC[C@H]43)nc2n(CCC)c1=O (relative stereo)", "100%"],
  ["CCCn1c(=O)c2[nH]c(C34CC5CC(CC(C5)C3)C4)nc2n(CCC)c1=O", "100%"],
  ["CCn1c(=O)c2[nH]c(C34CC5CC(CC3C5)C4)nc2n(CC)c1=O", "100%"],
  ["CCCn1c(=O)c2[nH]c(C34CC5CC(CC3C5)C4)nc2n(CCC)c1=O", "101%"],
  ["CCCn1c(=O)c2[nH]c([C@H]3C[C@@H]4C=C[C@@H]3C4)nc2n(CCC)c1=O (relative stereo)", "99%"],
  ["CCCn1c(=O)c2[nH]c(-c3ccc(S(=O)(=O)N(C)CCN(C)C)cc3)nc2n(CCC)c1=O [PD 115199, reference compound]", "97%"],
  ["CCCn1c(=O)c2[nH]c([C@H]3C[C@H]4CC[C@@H]3C4)nc2n(CCC)c1=O (relative stereo)", "100%"]
]}
